- tested.system: CAAX farnesyltransferase (Rattus norvegicus, UniProt Q02293+Q04631)
- test.description: In vitro farnesylation of the compound by CAAX farnesyltransferase (substrate test, thin layer chromatography)
- Format: biochemical
- stated.conditions: diastereomer A; relative to tetrapeptide CVIM; 3.6 μM, 37° C., 30 min
endpoint.name: % farnesylation "A"

compound: COC(=O)[C@H](CCSC)NC(=O)CN1C(=O)C(N(C)C(=O)[C@@H](N)CS)N=C(c2ccccc2)c2ccccc21 (stereo partly drawn) [compound 37]
result.value: < 1%
//
compound: CSCC[C@H](NC(=O)CN1C(=O)C(N(C)C(=O)[C@@H](N)CS)CCc2ccccc21)C(=O)O (stereo partly drawn) [compound 9]
result.value: < 1%
//
compound: CSCC[C@H](NC(=O)CN1C(=O)C(N(C)C(=O)C2CSC(C)N2)N=C(c2ccccc2)c2ccccc21)C(=O)O (stereo partly drawn) [compound 43]
result.value: < 1%

###

Below, each entry is listed alongside its reported log10(EC50).
- tested.system: CAAX farnesyltransferase (Rattus norvegicus, UniProt Q02293+Q04631)
- test.description: In vitro inhibition of CAAX farnesyltransferase
- Assay type: biochemical
- Parameters: purified to homogeneity from rat brain homogenates; from tissue; host or cells: rat brain; alternatively recombinant enzyme from a baculovirus expression system
- stated.conditions: diastereomer A; Table D; read-out: EC50 (μM) "A"
endpoint.name: log10(EC50) (log10 of the value in µM)

molecule: CN(C(=O)[C@@H](N)CS)C1N=C(c2ccccc2)c2cc(Cl)ccc2N(Cc2ccc(F)cc2)C1=O (stereo partly shown) [compound 108]
log10(EC50): -2.74
--
molecule: CSCC[C@@H](C(=O)O)N(C)C(=O)CN1C(=O)C(N(C)C(=O)[C@@H](N)CS)N=C(c2ccccc2)c2ccccc21 (stereo partly shown) [compound 64]
log10(EC50): -0.59
--
molecule: CSCC[C@H](NC(=O)CN1C(=O)C(N(C)C(=O)C2CSC(C)N2)N=C(c2ccccc2)c2ccccc21)C(=O)O (stereo partly shown) [compound 43]
log10(EC50): -0.49
--
molecule: COC(=O)c1cccc(CN2C(=O)C(N(C)C(=O)C(N)CS)N=C(c3ccccc3)c3ccccc32)c1 (stereo not shown) [compound 94]
log10(EC50): -0.09
--
molecule: CCOC(=O)[C@H](CCSC)NC(=O)CN1C(=O)C(N(C)C(=O)[C@@H](N)CS)N=C(c2ccccc2)c2ccccc21 (stereo partly shown) [compound 39]
log10(EC50): 0.90
--
molecule: CSCC[C@H](NC(=O)CCN1C(=O)C(N(C)C(=O)[C@@H](N)CS)N=C(c2ccccc2)c2ccccc21)C(=O)O (stereo partly shown) [compound 48]
log10(EC50): 0.40
--
molecule: CN(C(=O)[C@@H](N)CS)C1N=C(c2ccccc2)c2ccccc2N(CC(=O)N[C@@H](CC2CCCCC2)C(=O)O)C1=O (stereo partly shown) [compound 57]
log10(EC50): 0.30
--
molecule: CSCC[C@H](NC(=O)CN1C(=O)C(N(C)C(=O)[C@@H](N)CS)N=C(c2ccccc2F)c2cc(Cl)ccc21)C(=O)O (stereo partly shown) [compound 82]
log10(EC50): -0.60
--
molecule: CN(C(=O)[C@@H](N)CS)C1N=C(c2ccccc2)c2cc(Cl)ccc2N(Cc2cccc(C(F)(F)F)c2)C1=O (stereo partly shown) [compound 103]
log10(EC50): -2.13

###

- tested.system: CAAX farnesyltransferase (Rattus norvegicus, UniProt Q02293+Q04631)
- test.description: In vitro inhibition of CAAX farnesyltransferase
- Type: biochemical
- Design: purified to homogeneity from rat brain homogenates; from tissue; host or cells: rat brain; alternatively recombinant enzyme from a baculovirus expression system
- stated.conditions: diastereomer A; Table D; read-out: EC50 (μM) "A"

compound: CSCC[C@H](NC(=O)CN1C(=O)C(N(C)C(=O)[C@@H](N)CS)C=C(c2ccccc2Cl)c2cc(Cl)ccc21)C(=O)O (stereo partly drawn) [compound 92]
EC50 [µM]: 0.001

compound: CN(C(=O)[C@@H](N)CS)C1N=C(c2ccccc2)c2ccccc2N(CC(=O)N[C@@H](Cc2ccc(F)cc2)C(=O)O)C1=O (stereo partly drawn) [compound 60]
EC50 [µM]: 0.94

compound: CSCC[C@H](NC(=O)CN1C(=O)C(N(C)C(=O)[C@@H](N)CS)C=C(c2ccccc2F)c2cc(Cl)ccc21)C(=O)O (stereo partly drawn) [compound 80]
EC50 [µM]: 0.0003

compound: CN(C(=O)[C@@H](N)CS)C1N=C(c2ccccc2)c2cc(Cl)ccc2N(CC(=O)N[C@H](C(=O)O)C2CCCCC2)C1=O (stereo partly drawn) [compound 71]
EC50 [µM]: 0.1

compound: CSCC[C@](C)(NC(=O)CN1C(=O)C(N(C)C(=O)[C@@H](N)CS)N=C(c2ccccc2)c2ccccc21)C(=O)O (stereo partly drawn) [compound 49]
EC50 [µM]: 0.74

compound: Cc1cccc(CN2C(=O)C(N(C)C(=O)[C@@H](N)CS)N=C(c3ccccc3)c3cc(Cl)ccc32)c1 (stereo partly drawn) [compound 102]
EC50 [µM]: 0.11

###

- tested.system: CAAX farnesyltransferase (Rattus norvegicus, UniProt Q02293+Q04631)
- test.description: In vitro inhibition of CAAX farnesyltransferase
- Type: biochemical
- Parameters: purified to homogeneity from rat brain homogenates; from tissue; host or cells: rat brain; alternatively recombinant enzyme from a baculovirus expression system
- stated.conditions: diastereomer B; Table D; read-out: EC50 (μM) "B"
Below, each entry is listed alongside its reported log10 of EC50.
endpoint.name: log10 of EC50 (log10 of the value in µM)

compound: CSCC[C@H](NC(=O)CN1C(=O)C(N(C)C(=O)[C@@H](N)CS)CCc2ccccc21)C(=O)O (stereo partly shown)
tested.system: CAAX farnesyltransferase (Rattus norvegicus, UniProt Q02293+Q04631)
log10 of EC50: -1.62
//
compound: CSCC[C@](C)(NC(=O)CN1C(=O)C(N(C)C(=O)[C@@H](N)CS)N=C(c2ccccc2)c2ccccc21)C(=O)O (stereo partly shown)
tested.system: CAAX farnesyltransferase (Rattus norvegicus, UniProt Q02293+Q04631)
log10 of EC50: -2.22
//
compound: CN(C(=O)C(N)CS)C1N=C(c2ccccc2)c2ccccc2N(Cc2cccc(C(=O)O)c2)C1=O (stereo not shown)
tested.system: CAAX farnesyltransferase (Rattus norvegicus, UniProt Q02293+Q04631)
log10 of EC50: -2.18
//
compound: CSCC[C@@H](C(=O)O)N(C)C(=O)CN1C(=O)C(N(C)C(=O)[C@@H](N)CS)N=C(c2ccccc2)c2ccccc21 (stereo partly shown)
tested.system: CAAX farnesyltransferase (Rattus norvegicus, UniProt Q02293+Q04631)
log10 of EC50: -2.70
//
compound: CN(C(=O)[C@@H](N)CS)C1N=C(c2ccccc2)c2ccccc2N(CC(=O)N2CCC[C@H]2C(=O)O)C1=O (stereo partly shown)
tested.system: CAAX farnesyltransferase (Rattus norvegicus, UniProt Q02293+Q04631)
log10 of EC50: -1.32
//
compound: CCCC[C@H](NC(=O)CN1C(=O)C(N(C)C(=O)[C@@H](N)CS)N=C(c2ccccc2)c2ccccc21)C(=O)O (stereo partly shown)
tested.system: CAAX farnesyltransferase (Rattus norvegicus, UniProt Q02293+Q04631)
log10 of EC50: -3.30
//
compound: Cc1cccc(CN2C(=O)C(N(C)C(=O)[C@@H](N)CS)N=C(c3ccccc3)c3cc(Cl)ccc32)c1 (stereo partly shown)
tested.system: CAAX farnesyltransferase (Rattus norvegicus, UniProt Q02293+Q04631)
log10 of EC50: -1.42

###

- tested.system: CAAX farnesyltransferase (Rattus norvegicus, UniProt Q02293+Q04631)
- test.description: In vitro inhibition of CAAX farnesyltransferase
- Format: biochemical
- Parameters: purified to homogeneity from rat brain homogenates; from tissue; host or cells: rat brain; alternatively recombinant enzyme from a baculovirus expression system
- stated.conditions: diastereomer A; Table D; read-out: EC50 (μM) "A"
endpoint.name: EC50 (µM)

compound: CN(C(=O)[C@@H](N)CS)C1N=C(c2ccccc2)c2cc(Cl)ccc2N(Cc2ccccc2Cl)C1=O (stereo partly drawn)
limit.operator: =
result.value: 0.006
--
compound: CN(C(=O)[C@@H](N)CS)C1N=C(c2ccccc2)c2ccccc2N(CC(=O)N[C@@H](Cc2ccccc2)C(=O)O)C1=O (stereo partly drawn)
limit.operator: =
result.value: 0.54
--
compound: CSCC[C@H](NC(=O)CN1C(=O)C(N(C)C(=O)[C@@H](N)CSSC(C)(C)C)N=C(c2ccccc2)c2cc(Cl)ccc21)c1nnn[nH]1 (stereo partly drawn)
limit.operator: >
result.value: 3
--
compound: CN(C(=O)[C@@H](N)CSSC(C)(C)C)C1N=C(c2ccccc2)c2cc(Cl)ccc2N(CC(=O)N[C@@H](Cc2ccccc2)c2nnn[nH]2)C1=O (stereo partly drawn)
limit.operator: >
result.value: 3
--
compound: CCCC[C@H](NC(=O)CN1C(=O)C(N(C)C(=O)[C@@H](N)CS)N=C(c2ccccc2)c2ccccc21)C(=O)O (stereo partly drawn)
limit.operator: =
result.value: 0.72
--
compound: CN(C(=O)C(N)CS)C1N=C(c2ccccc2)c2ccccc2N(Cc2cccc(-c3nnn[nH]3)c2)C1=O (stereo not drawn)
limit.operator: =
result.value: 0.23
